The following compounds are listed with their measured Ki values.
- system.name: Cannabinoid receptor 2 (Homo sapiens, UniProt P34972)
- Sequence (P34972 whole entry): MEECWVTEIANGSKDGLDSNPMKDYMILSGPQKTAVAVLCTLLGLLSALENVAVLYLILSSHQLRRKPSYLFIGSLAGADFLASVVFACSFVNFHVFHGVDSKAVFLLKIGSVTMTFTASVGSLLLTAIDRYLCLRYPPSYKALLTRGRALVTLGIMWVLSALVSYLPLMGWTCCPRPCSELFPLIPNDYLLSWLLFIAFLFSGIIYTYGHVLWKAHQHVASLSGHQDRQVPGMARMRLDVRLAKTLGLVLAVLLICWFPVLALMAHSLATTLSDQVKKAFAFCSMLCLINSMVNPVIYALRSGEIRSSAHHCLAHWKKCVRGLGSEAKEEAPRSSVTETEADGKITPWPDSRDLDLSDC
- assay.notes: Displacement of [3H]CP-55940 from human recombinant CB2 receptor expressed in HEK293 cells by scintillation counting
- Assay type: cell-based

Use these answered entries as a reference point.
# input.smiles, Ki
data = [
    ("CCCCCCCCCCC[C@@H](C[C@@H]1OC(=O)[C@H]1CCCCCC)OC(=O)[C@@H](NC(C)=O)C(C)C", "> 10 µM"),
    ("CCCCCCCCCCC[C@@H](C[C@@H]1OC(=O)[C@H]1CCCCCC)OC(=O)[C@H](CC(C)C)NC=O", "> 10 µM"),
]

Tell me its Ki on Cannabinoid receptor 2 (Homo sapiens, UniProt P34972): `CCCCCCCCCCC[C@@H](C[C@@H]1OC(=O)[C@H]1CCCCCC)OC(=O)[C@@H]1CCCN1C=O`
7.4 µM
